# method_description: Thermodynamic solubility in PBS, FaSSIF and SGF
# Assay type: physicochemical
# test_settings: Simulated Gastric Fluid (SGF), simulated gastric fluid, thermodynamic from solid; SGF pH 1.2, 24 hour timepoint, room temperature
Counter-ions that a name gives are not always drawn.

| compound | solubility thermodynamic at 24 h (µg/mL) |
| --- | --- |
| CC(C)OC(=O)[C@H](NC(=O)c1ccc(C(=O)N[C@@H](C(=O)OC(C)C)C2CN3CCC2CC3)cc1)C1CN2CCC1CC2 (stereo partly shown) | 5140 |
| O=C(N[C@@H](C(=O)O)C1CN2CCC1CC2)c1ccc(C(=O)N[C@@H](C(=O)O)C2CN3CCC2CC3)cc1 (stereo partly shown) [APL-2191.2HCl, bis hydrochloride salt] | 4560 |
| CCOC(=O)[C@H](NC(=O)c1ccc(C(=O)N[C@@H](C(=O)OCC)C2CN3CCC2CC3)cc1)C1CN2CCC1CC2 (stereo partly shown) | 4000 |
| COC(=O)[C@H](NC(=O)c1ccc(C(=O)N[C@@H](C(=O)OC)C2CN3CCC2CC3)cc1)C1CN2CCC1CC2 (stereo partly shown) | 5930 |

----------
# method_description: Thermodynamic solubility in PBS, FaSSIF and SGF
# Format: physicochemical
# test_settings: Simulated Fasted State Intestinal Fluid (FaSSIF), thermodynamic from solid; FaSSIF pH 6.5, 24 hour timepoint, room temperature
Where a name gives a salt, the structure may show the parent alone.
reported_metric: solubility thermodynamic at 24 h (µg/mL)

| compound | reported_metric | uom | endpoint_value |
| --- | --- | --- | --- |
| CC(C)OC(=O)[C@H](NC(=O)c1ccc(C(=O)N[C@@H](C(=O)OC(C)C)C2CN3CCC2CC3)cc1)C1CN2CCC1CC2 (stereo partly shown) [Example 13] | solubility thermodynamic at 24 h | µg/mL | 5200 |
| CCOC(=O)[C@H](NC(=O)c1ccc(C(=O)N[C@@H](C(=O)OCC)C2CN3CCC2CC3)cc1)C1CN2CCC1CC2 (stereo partly shown) [Example 12] | solubility thermodynamic at 24 h | µg/mL | 4540 |
| COC(=O)[C@H](NC(=O)c1ccc(C(=O)N[C@@H](C(=O)OC)C2CN3CCC2CC3)cc1)C1CN2CCC1CC2 (stereo partly shown) [Example 1] | solubility thermodynamic at 24 h | µg/mL | 4690 |
| O=C(N[C@@H](C(=O)O)C1CN2CCC1CC2)c1ccc(C(=O)N[C@@H](C(=O)O)C2CN3CCC2CC3)cc1 (stereo partly shown) [APL-2191.2HCl, bis hydrochloride salt] | solubility thermodynamic at 24 h | µg/mL | 2510 |
